# Test target: the molecule itself
# Assay text: SEC peak area ratio; full-length heavy chain, light chain and VHH-Fc coexpressed in Expi293F, affinity purified
Measurement kind: Homo Fc fragment (%)
Lab book: enter the figure in %, no units written.

Lab note: measured Homo Fc fragment (%) of VHH-Fc with E356K/K392D/D399K/K409D (SEQ ID NO: 591) (Fc fusion, also called VHH-Fc of Sample No. 310) EVQLVESGGGLVQPGGSLRLSCAASGSISSVDVMSWYRQAPGKQRELVAFITDRGRTNYKVSVKGRFTISRDNSKNMVYLQMNSLKPEDTADYLCRAESRTSWSSPSPLDVWGRGTQVTVSSDKTHTCPPCPAPELLGGPSVFLFPPKPKDTLMISRTPEVTCVVVDVSHEDPEVKFNWYVDGVEVHNAKTKPREEQYNSTYRVVSVLTVLHQDWLNGKEYKCKVSNKALPAPIEKTISKAKGQPREPQVYTLPPSRKEMTKNQVSLTCLVKGFYPSDIAVEWESNGQPENNYDTTPPVLKSDGSFFLYSDLTVDKSRWQQGNVFSCSVMHEALHNHYTQKSLSLSP was 28.9

Lab note: measured Homo Fc fragment (%) of VHH-Fc with T350V/L351Y/T366L/K392L/T394W/F405A/Y407V (SEQ ID NO: 593) (Fc fusion) EVQLVESGGGLVQPGGSLRLSCAASGSISSVDVMSWYRQAPGKQRELVAFITDRGRTNYKVSVKGRFTISRDNSKNMVYLQMNSLKPEDTADYLCRAESRTSWSSPSPLDVWGRGTQVTVSSDKTHTCPPCPAPELLGGPSVFLFPPKPKDTLMISRTPEVTCVVVDVSHEDPEVKFNWYVDGVEVHNAKTKPREEQYNSTYRVVSVLTVLHQDWLNGKEYKCKVSNKALPAPIEKTISKAKGQPREPQVYVYPPSREEMTKNQVSLLCLVKGFYPSDIAVEWESNGQPENNYLTWPPVLDSDGSFALVSKLTVDKSRWQQGNVFSCSVMHEALHNHYTQKSLSLSP was 31.8
